TARGET SYSTEM: BioZ(C115A) mutant enzyme of Agrobacterium tumefaciens (Agrobacterium tumefaciens), A0AA44
METHOD DESCRIPTION: ITC; MicroCal PEAQ-ITC, 25 °C; 50 μM BioZ(C115A) in the cell, 750 μM substrate in the syringe; 20 mM Tris pH 8.0, 150 mM NaCl; one binding-site model; three independent measurements
STUDY CONDITIONS: remark: other sources report otherwise
OBSERVED PROPERTY: pKd
Here pKd is given on a logarithmic scale as minus log10 of the concentration in mol/L.

Worked cases, pKd given:
Per the records, this binder ( E. coli holo-ACP, P0A6A8 1-78 (natural protein, here or on the partner: phosphopantetheine (Ppan) on Serine 36 (holo-ACP)) MSTIEERVKKIIGEQLGVKQEEVTNNASFVEDLGADSLDTVELVMALEEEFDTEIPDEEAEKITTVQAAIDYINGHQA ) has pKd equal to 3.48

So, malonyl-ACP, P0A6A8 1-78 (natural protein, here or on the partner: malonyl thioester on the phosphopantetheine (Ppan) of Serine 36) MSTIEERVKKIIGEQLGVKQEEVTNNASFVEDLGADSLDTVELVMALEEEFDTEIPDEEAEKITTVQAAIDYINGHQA ? Its pKd was 4.62

Continuing:
Entry glutaryl-ACP, P0A6A8 1-78 (natural protein, here or on the partner: glutaryl thioester on the phosphopantetheine (Ppan) of Serine 36) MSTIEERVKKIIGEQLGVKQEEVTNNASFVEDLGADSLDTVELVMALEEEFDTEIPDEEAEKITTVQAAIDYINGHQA — recorded pKd = 5.21

Origin of measurements: paper PMC8024396
